# Tested on: SK-MEL-28 melanoma
# procedureSummary: NCI-60 one-dose screen, 48 h (100 = growth as untreated, 0 = no growth, -100 = all killed)
# testParameters: 10 µM unless noted
# Protocol: Growth inhibition of the SK-MEL-28 human tumor cell line is measured as a screen for anti-cancer activity. Cells are grown in 96 well plates and exposed to the test compound for 48 hours. Compounds are tested at a single concentration, which is 10^-5 M for most compounds. The reported endpoint is percent growth (GI% or GIPRCNT), where numbers from 0 - 100% represent growth inhibition, and numbers from -100% - 0 represent cell death. For example, a value of 40 represents 60% growth inhibition. […]
Compounds without any hit were thinned out: in the full panel of roughly 83,000, 20% have a hit.
experimentalEndpoint: growth (%)

molecule: Cc1n(Cc2ccc3ccccc3c2)c(Cl)c(Cl)[n+]1Cc1ccc2ccccc2c1
targetSystem: SK-MEL-28 melanoma
experimentalEndpoint: growth
measured: 26.6
//
molecule: COc1ccc(/C=N/NC(=O)CN2CCN(c3cc4c(cc3F)c(=O)c(C(=O)O)cn4C3CC3)CC2)cc1O
targetSystem: SK-MEL-28 melanoma
experimentalEndpoint: growth
measured: 109
//
molecule: Cc1ccc(C(=O)N(CCCN)[C@@H](c2nc3cc(Cl)ccc3c(=O)n2Cc2ccccc2)C(C)C)cc1
targetSystem: SK-MEL-28 melanoma
experimentalEndpoint: growth
measured: -31
//
molecule: COc1ccc(C(=O)N/N=C/c2ccc(O)cc2O)cc1Nc1ccnc(C(F)(F)F)c1
targetSystem: SK-MEL-28 melanoma
experimentalEndpoint: growth
measured: 42.9
//
molecule: CCOC(=O)C(=CCC(C)C)C(=O)OCC
targetSystem: SK-MEL-28 melanoma
experimentalEndpoint: growth
measured: 107
//
molecule: O=C1/C(=C/c2ccc(-c3ccccc3C(F)(F)F)o2)SC(=S)N1CCc1ccc(O)cc1
targetSystem: SK-MEL-28 melanoma
experimentalEndpoint: growth
measured: 69.5
//
molecule: CCCCC1COc2cccc3c2N1C=C/C3=C\C(=O)N(C)c1cccc(Cl)c1 (configuration not stated)
targetSystem: SK-MEL-28 melanoma
experimentalEndpoint: growth
measured: 104
//
molecule: COc1cc(OC)cc(-c2ccc(-c3ccc(C(=N)N)cn3)s2)c1
targetSystem: SK-MEL-28 melanoma
experimentalEndpoint: growth
measured: 109
//
molecule: COc1ccc(C(c2cc(OC)c(OC)c(OC)c2)n2ccnc2)cc1O (configuration not stated)
targetSystem: SK-MEL-28 melanoma
experimentalEndpoint: growth
measured: 62.9
//
molecule: Nc1nc(N)c2c(n1)NC(c1ccc(Cl)cc1)CC(c1cccc(Nc3ccncc3)c1)=N2 (configuration not stated)
targetSystem: SK-MEL-28 melanoma
experimentalEndpoint: growth
measured: 72.2
//
molecule: Cn1cc(-c2nc3c(F)cc4[nH]ncc4c3c3c2CCCC3)c(C(F)F)n1
targetSystem: SK-MEL-28 melanoma
experimentalEndpoint: growth
measured: 80.8
//
molecule: Cc1ccc(NC(=O)c2sc3nc(C)c(C(=O)c4ccccc4)cc3c2N)cc1
targetSystem: SK-MEL-28 melanoma
experimentalEndpoint: growth
measured: 92
//
molecule: C=C(CN1CC=CCC1)[C@@H]1CC[C@]2(COC(C)=O)CC[C@]3(C)[C@H](CC[C@@H]4[C@@]5(C)CC[C@H](O)C(C)(C)[C@@H]5CC[C@]43C)[C@@H]12
targetSystem: SK-MEL-28 melanoma
experimentalEndpoint: growth
measured: 105
//
molecule: CC(Sc1ccccc1)C(=O)O (configuration not stated)
targetSystem: SK-MEL-28 melanoma
experimentalEndpoint: growth
measured: 106
//
molecule: CN1CCN(c2ccc(Nc3ncc(C(N)=O)c(NCCCNC(=O)C4CCC4)n3)cc2)CC1
targetSystem: SK-MEL-28 melanoma
experimentalEndpoint: growth
measured: 103
//
molecule: COc1ccc(/C=C2/C(=O)N=C3N2NC(c2ccccc2)=CN3c2ccccc2)cc1
targetSystem: SK-MEL-28 melanoma
experimentalEndpoint: growth
measured: 108
//
molecule: O=[N+]([O-])c1ccc2[nH]c3nccc(NCc4cccc(Cl)c4)c3c2c1
targetSystem: SK-MEL-28 melanoma
experimentalEndpoint: growth
measured: 101
//
molecule: O=C1Nc2ccccc2/C1=C/c1cccn1CCCCCn1c2ccccc2c(=O)c2ccccc21
targetSystem: SK-MEL-28 melanoma
experimentalEndpoint: growth
measured: 88.1
//
molecule: CCCCCC#CC1OC23CCCCC2C(C#N)(C(=N)O3)C1(C#N)C#N (configuration not stated)
targetSystem: SK-MEL-28 melanoma
experimentalEndpoint: growth
measured: 109
//
molecule: Cc1nn(-c2nc(-c3cc4ccccc4oc3=O)cs2)c(C)c1N=Nc1ccccc1
targetSystem: SK-MEL-28 melanoma
experimentalEndpoint: growth
measured: 108
//
molecule: CC/C=C\C/C=C\C[C@H](O)C/C=C1/C(=O)C=C[C@@H]1C/C=C\CCCC(=O)OC
targetSystem: SK-MEL-28 melanoma
experimentalEndpoint: growth
measured: -38
//
molecule: C=C(CNCCc1ccc(O)cc1)[C@@H]1CC[C@]2(CO)CC[C@]3(C)[C@H](CC[C@@H]4[C@@]5(C)CCC(NCCc6ccc(O)cc6)C(C)(C)[C@@H]5CC[C@]43C)[C@@H]12 (some centres not stated)
targetSystem: SK-MEL-28 melanoma
experimentalEndpoint: growth
measured: -87.6
//
molecule: COc1ccc(-c2csc(NC(=O)CN3CCN(CCO)CC3)n2)cc1NS(=O)(=O)c1cccc2c(N(C)C)cccc12
targetSystem: SK-MEL-28 melanoma
experimentalEndpoint: growth
measured: -2.57
//
molecule: CC(=O)OC[C@]12CCC(C)(C)C=C1[C@H]1CC[C@@H]3[C@@]4(C)CCCNC(C)(C)[C@@H]4CC[C@@]3(C)[C@]1(C)CC2
targetSystem: SK-MEL-28 melanoma
experimentalEndpoint: growth
measured: 59.1
//
molecule: Clc1ccc2c(c1)N(c1ncnc3ccc(-c4cnc5[nH]ccc5c4)cc13)CC2
targetSystem: SK-MEL-28 melanoma
experimentalEndpoint: growth
measured: 36
//
molecule: Nc1ncc(-c2ccc3ncnc(N4CCc5ccc(Cl)cc54)c3c2)cc1C(F)(F)F
targetSystem: SK-MEL-28 melanoma
experimentalEndpoint: growth
measured: 28.7
//
molecule: CN1CCN(Cc2ccc(NC(=O)c3cccc(C#Cc4c(N)ncc5ccc(F)cc45)c3)cc2C(F)(F)F)CC1
targetSystem: SK-MEL-28 melanoma
experimentalEndpoint: growth
measured: -90.2
//
molecule: CN1CCN(C(=O)OCc2nc3c(N4CCOCC4)nc(Cl)nc3n2C)CC1
targetSystem: SK-MEL-28 melanoma
experimentalEndpoint: growth
measured: -95.5
//
molecule: CCOC(=O)n1cc(-c2nonc2-c2cn(C)c3ccc(OC)cc23)c2cc(F)ccc21
targetSystem: SK-MEL-28 melanoma
experimentalEndpoint: growth
measured: 99.6
//
molecule: COCCOc1cc2ncnc(N3CCN(S(=O)(=O)c4ccccc4Cl)CC3)c2cc1OCCOC
targetSystem: SK-MEL-28 melanoma
experimentalEndpoint: growth
measured: 82.8
//
molecule: Cc1ccc(C(=O)Nc2nc3c(s2)CN(Cc2ccccc2)CC3)cn1
targetSystem: SK-MEL-28 melanoma
experimentalEndpoint: growth
measured: 94.3
//
molecule: Cc1ccc(-c2nc3nc(-c4ccccc4)nc(N4CCN(S(=O)(=O)c5ccccc5)CC4)c3o2)cc1
targetSystem: SK-MEL-28 melanoma
experimentalEndpoint: growth
measured: 106
//
molecule: CCCCSc1ccc2nc(-c3ccc(OCCCN=C(N)N)cc3)cn2c1
targetSystem: SK-MEL-28 melanoma
experimentalEndpoint: growth
measured: 38.3
//
molecule: CCN(c1cc(-c2ccc(CN3CCC(/C=C/S(=O)(=O)c4ccccc4)CC3)cc2)cc(C(=O)NCc2c(C)cc(C)[nH]c2=O)c1C)C1CCOCC1
targetSystem: SK-MEL-28 melanoma
experimentalEndpoint: growth
measured: 97.9
//
molecule: N#Cc1c(-c2cccc(F)c2)cc(-c2cccnc2)[nH]c1=O
targetSystem: SK-MEL-28 melanoma
experimentalEndpoint: growth
measured: 104
//
molecule: O=C(NCc1cccnc1)/C(=C\c1ccc(Br)cc1)S(=O)(=O)c1ccccc1
targetSystem: SK-MEL-28 melanoma
experimentalEndpoint: growth
measured: -39.3
//
molecule: CCCCC(NC(=O)CN1C(=O)/C(=C/C(C)=C/c2ccccc2)SC1=S)C(=O)O (configuration not stated)
targetSystem: SK-MEL-28 melanoma
experimentalEndpoint: growth
measured: 104
